As shown below, each of these compounds has a reported TGI value.
test system: SK-MEL-28 melanoma; assay: NCI tumour cell line growth inhibition, 48 h

compound | TGI
Cc1ncc([N+](=O)[O-])n1CCNS(=O)(=O)CCCn1ccnc1[N+](=O)[O-] | > 100 µM
NCCCC(=O)Nc1ccncc1 | > 100 µM
C=C(Cl)COC(=O)Nc1cccc(Cl)c1 | > 100 µM
CCCCCNC(=O)[C@@H]1CCCN2C(=O)CC[C@H](NC(=O)[C@H](Cc3ccc(OP(=O)(O)O)cc3)NC(C)=O)C(=O)N12 | > 25 µM
Nc1nc(Nc2ccc3c(c2)CC[C@@H](N2CCCC2)CC3)nn1-c1cc2c(nn1)-c1ccccc1CCC2 | 3.27 µM
NCCCN(CCCN)CCCNCc1c2ccccc2c(CNCCCN(CCCN)CCCN)c2ccccc12 | 21.9 µM
O=[N+]([O-])c1ccc(Sc2c3ccccc3nc3ccccc23)cc1 | > 100 µM
CCCc1ccc(S(=O)(=O)N[C@H]2CC[C@H]3[C@@H]4CCc5cc(O)ccc5[C@H]4CC[C@]23C)cc1 | 6.33 µM
CC1(C)CC(=O)C2=C(C1)NC(SCC(=O)O)=C(C#N)C2c1ccc(Br)cc1 (configuration not stated) | > 100 µM
FC(F)(F)c1cccc(COCCN2CCN(Cc3cccc(C(F)(F)F)c3)CC2)c1 | 34.6 µM
Cc1ccccc1CN1CC2=C(CCN(Cc3ccccc3)C2=O)N2CCN=C12 | > 100 µM
Cc1ccc2ccc(=O)oc2c1 | > 100 µM

* * *

tested on: DU-145 prostate; test: NCI tumour cell line growth inhibition, 48 h
As shown below, each of these compounds has a reported TGI value.

compound | TGI
CCn1nc(-c2ccccc2)c2c1N(C)c1ccccc1-n1c(-c3ccccc3)nnc1-2 | 29.7 µM
CC(=O)[C@H]1CC[C@H]2[C@@H]3CCC4=CC(=O)CC[C@]4(C)[C@H]3CC[C@]12C | 94.3 µM
COc1ccc(C2=NN(C(=O)COc3ccc(Cl)cc3)C(O)(c3cc(F)c(Cl)cc3Cl)C2)cc1OC (stereo not drawn) | 3.73 µM
CN(C)CCCN=C(N)N | > 100 µM
N#Cc1nc(C(F)(F)F)oc1N | > 100 µM
OCCN1CN(c2nc(N3CN(CCO)C3)nc(N3CN(CCO)C3)n2)C1 | 54.7 µM
O=C1c2cc([N+](=O)[O-])cnc2S(=O)(=O)N1c1ccc(Br)cc1 | > 100 µM
c1nncn1C12C3C4C5C3C1C5C42 (stereo not drawn) | > 100 µM
N#CCN1CCCCCc2ccccc21 | > 100 µM
NCCCC(=O)Nc1ccncc1 | > 100 µM
C=C1C[C@@H]2C/C=C/C(=O)C/C(C)=C\C=C\C(=O)O[C@H](C=O)C/C(C)=C/[C@H](C1)O2 | 2.32 µM
CCC(C)NC(=S)N/N=C(\C)c1ccccn1 (stereo not drawn) | > 46.8 µM
O=c1[nH]c(=S)c2cc3c(=S)[nH]c(=O)n(CCC(c4ccccc4)(c4ccccc4)c4ccccc4)c3nc2n1CCC(c1ccccc1)(c1ccccc1)c1ccccc1 | > 100 µM
COc1c(C)c2c(c(O)c1C/C=C(\C)CCC(=O)OCCN1CCOCC1)C(=O)OC2 | > 100 µM
N#Cc1ccc(OC(=O)c2ccc(N=C(N)N)cc2)cc1 | > 100 µM
CCOC(=O)CCCn1c(SC)nc2cc(-c3ccco3)[nH]c2c1=O | > 100 µM
OCC(O)C(O)C(O)C1SC(c2ccccc2)=NN1c1ccccc1 (stereo not drawn) | > 100 µM
N#CN=C1c2ccccc2C(=NC#N)c2cc(CO)ccc21 | 69 µM
